Property: Ki; scope: individual molecules
- System name: Glutamate NMDA receptor
- Assay remarks: Displacement of [3H]TCP from NMDA receptor in rat brain membrane
Measured parameter: Ki (µM)

INSERT INTO assay_data (substance_smiles, unit_abbreviation, value_measured) VALUES
  ('NC1(c2ccc(F)cc2)CCCCC1', 'µM', 5.13),
  ('NC1(c2cccc(O)c2)CCCCC1', 'µM', 0.225),
  ('c1ccc(C2(N3CCCCC3)CCCCC2)cc1', 'µM', 0.07);
